Taken from patent US20240182536A1.

We begin with a simple list: items and their reported HEK-Blue activity, No BP, DF-1,000,000.
subject of test: T1, IL-18 receptors on HEK-Blue IL-18 reporter cells (UniProt Q13478 19-541; O95256 20-599, limits assumed)
T1 sequence (looked up) 1: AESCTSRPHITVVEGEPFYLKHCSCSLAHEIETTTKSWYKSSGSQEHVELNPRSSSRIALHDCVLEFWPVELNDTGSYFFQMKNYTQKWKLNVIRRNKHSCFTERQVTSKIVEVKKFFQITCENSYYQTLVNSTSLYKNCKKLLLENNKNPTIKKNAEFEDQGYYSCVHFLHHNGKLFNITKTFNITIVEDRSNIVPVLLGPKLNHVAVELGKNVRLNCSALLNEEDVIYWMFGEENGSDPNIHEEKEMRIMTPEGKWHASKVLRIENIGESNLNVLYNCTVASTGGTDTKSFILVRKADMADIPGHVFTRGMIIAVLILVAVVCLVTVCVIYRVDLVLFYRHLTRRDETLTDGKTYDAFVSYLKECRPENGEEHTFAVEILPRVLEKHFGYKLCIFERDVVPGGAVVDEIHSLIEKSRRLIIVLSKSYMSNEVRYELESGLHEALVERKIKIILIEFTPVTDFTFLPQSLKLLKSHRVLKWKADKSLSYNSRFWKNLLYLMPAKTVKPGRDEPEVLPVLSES
T1 sequence (looked up) 2: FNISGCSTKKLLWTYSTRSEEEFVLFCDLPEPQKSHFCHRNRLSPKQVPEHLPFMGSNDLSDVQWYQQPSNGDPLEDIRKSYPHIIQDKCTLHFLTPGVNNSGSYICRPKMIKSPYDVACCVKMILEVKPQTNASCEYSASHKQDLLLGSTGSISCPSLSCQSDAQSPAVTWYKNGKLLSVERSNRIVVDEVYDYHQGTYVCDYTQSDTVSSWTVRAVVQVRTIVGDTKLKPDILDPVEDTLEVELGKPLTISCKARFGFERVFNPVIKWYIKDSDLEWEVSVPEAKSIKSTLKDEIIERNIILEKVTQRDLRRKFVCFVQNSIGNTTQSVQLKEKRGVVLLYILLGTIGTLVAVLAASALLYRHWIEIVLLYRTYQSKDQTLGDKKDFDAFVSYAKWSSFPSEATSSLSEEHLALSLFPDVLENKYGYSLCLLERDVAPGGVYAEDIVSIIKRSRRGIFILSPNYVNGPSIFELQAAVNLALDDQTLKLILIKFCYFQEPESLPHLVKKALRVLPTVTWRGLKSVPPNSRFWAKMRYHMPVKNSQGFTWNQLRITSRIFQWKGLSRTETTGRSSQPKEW
assay text: cell-based or functional assay; note: unit not given here
Response field accepts a number only; no unit should be typed.

| binder | readout kind | numeric readout |
| --- | --- | --- |
| IL-18 variant K53H, S55I (ligand) YFGKLESKLSVIRNLNDQVLFIDQGNRPLFEDMTDSDMRDNAPRTIFIISMYHDIQPRGMAVTISVKSEKISTLSSENKIISFKEMNPPDNIKDTKSDIIFFQRSVPGHDNKMQFESSSYEGYFLASEKERDLFKLILKKEDELGDRSIMFTVQNED | HEK-Blue activity, No BP, DF-1,000,000 | 0.09 |

Request: Dear colleague, I am looking for the recorded HEK-Blue activity, No BP, DF-1,000,000 of the following binder: IL-18 variant K53H, S55R (ligand) YFGKLESKLSVIRNLNDQVLFIDQGNRPLFEDMTDSDMRDNAPRTIFIISMYHDRQPRGMAVTISVKSEKISTLSSENKIISFKEMNPPDNIKDTKSDIIFFQRSVPGHDNKMQFESSSYEGYFLASEKERDLFKLILKKEDELGDRSIMFTVQNED
Response: 0.09

Request: Dear colleague, I am looking for the recorded HEK-Blue activity, No BP, DF-1,000,000 of the following binder: IL-18 variant K53H, S55H, N87D, H109I (ligand) YFGKLESKLSVIRNLNDQVLFIDQGNRPLFEDMTDSDMRDNAPRTIFIISMYHDHQPRGMAVTISVKSEKISTLSSENKIISFKEMDPPDNIKDTKSDIIFFQRSVPGIDNKMQFESSSYEGYFLASEKERDLFKLILKKEDELGDRSIMFTVQNED
Response: 0.09

Request: Dear colleague, I am looking for the recorded HEK-Blue activity, No BP, DF-1,000,000 of the following binder: IL-18 variant S36E, D37E, D40R, N41G, K53Y, S55F (ligand) YFGKLESKLSVIRNLNDQVLFIDQGNRPLFEDMTDEEMRRGAPRTIFIISMYYDFQPRGMAVTISVKSEKISTLSSENKIISFKEMNPPDNIKDTKSDIIFFQRSVPGHDNKMQFESSSYEGYFLASEKERDLFKLILKKEDELGDRSIMFTVQNED
Response: 0.14

Request: Dear colleague, I am looking for the recorded HEK-Blue activity, No BP, DF-1,000,000 of the following binder: IL-18 variant K53S, S55F, T63S, R104K, H109Y (ligand) YFGKLESKLSVIRNLNDQVLFIDQGNRPLFEDMTDSDMRDNAPRTIFIISMYSDFQPRGMAVSISVKSEKISTLSSENKIISFKEMNPPDNIKDTKSDIIFFQKSVPGYDNKMQFESSSYEGYFLASEKERDLFKLILKKEDELGDRSIMFTVQNED
Response: 0.09

Request: Dear colleague, I am looking for the recorded HEK-Blue activity, No BP, DF-1,000,000 of the following binder: IL-18 variant K8R, L9G, S10C, K53G, S55A, R104G (ligand) YFGKLESRGCVIRNLNDQVLFIDQGNRPLFEDMTDSDMRDNAPRTIFIISMYGDAQPRGMAVTISVKSEKISTLSSENKIISFKEMNPPDNIKDTKSDIIFFQGSVPGHDNKMQFESSSYEGYFLASEKERDLFKLILKKEDELGDRSIMFTVQNED
Response: 0.1
